Assign protein stability index to each entry below.
B1: ATL3 (parent)
chain: EKALASILLQDHIRDLDVVVVSVA

- Variants of: B1
- experimentDescription: protein stability index of a GFP-peptide fusion (GPS, HEK-293T) (PSI 1-6); higher = more stable;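 further: lentivirally expressed fusions sorted by FACS into six bins by GFP to DsRed ratio, PSI derived from sequencing read proportions per bin multiplied by bin number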
- protocolConditions: c terminus: a fixed tail appended
One number for each entry.

Some entries whose results are on file:
>  <mutations>
A24N

>  <experimentalValue>
2.01

$$$$
>  <mutations>
V19S

>  <experimentalValue>
2.01

$$$$
>  <mutations>
I7L

>  <experimentalValue>
1.97

$$$$
>  <mutations>
D17M

>  <experimentalValue>
2.05

$$$$

Tell me the measured protein stability index of S22L , please.
2.02

Where these numbers come from: the supplement of paper PMC10567573
